Target: human LPAR1 (Homo sapiens, UniProt Q92633)
Sequence (Q92633 whole entry): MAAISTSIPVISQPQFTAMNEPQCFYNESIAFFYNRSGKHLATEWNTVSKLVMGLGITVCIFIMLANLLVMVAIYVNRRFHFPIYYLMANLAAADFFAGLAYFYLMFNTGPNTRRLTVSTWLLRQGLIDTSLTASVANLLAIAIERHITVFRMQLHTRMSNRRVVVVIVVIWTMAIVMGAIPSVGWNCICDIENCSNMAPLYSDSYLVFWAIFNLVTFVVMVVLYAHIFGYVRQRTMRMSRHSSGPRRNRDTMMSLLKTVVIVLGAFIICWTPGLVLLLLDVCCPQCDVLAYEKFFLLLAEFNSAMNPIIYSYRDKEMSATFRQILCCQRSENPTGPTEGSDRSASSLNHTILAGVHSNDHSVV
Experiment: LPAR1 intracellular calcium mobilization assay (antagonist mode, FLIPR)
Type: cell-based
Conditions: CHO-K1 EDG2 cells expressing human LPAR1; test compound 0.5 nM to 10 μM pre-incubated 60 minutes at 37° C., then LPA 18:2 at EC80 concentration (100 nM)
measure: EC50 (nM)
Give bare numbers, in nM.

Known EC50 results, listed for orientation:
{"compound": "C[C@@H](OC(=O)Nc1c(-c2cc(F)c(C(=O)NC34CC(C#N)(C3)C4)cn2)nnn1C)c1cccnc1Cl", "unit spec": "nM", "EC50": 233}
{"compound": "C[C@@H](OC(=O)Nc1c(-c2ccc(C(=O)NC3CCOCC3)cn2)nnn1C)c1cccnc1Cl", "unit spec": "nM", "EC50": 3590}
{"compound": "C[C@@H](OC(=O)Nc1c(-c2ccc(C(=O)NC34CC(C3)C4)cn2)nnn1C)c1cccnc1Cl", "unit spec": "nM", "EC50": 439}
{"compound": "C[C@@H](OC(=O)Nc1c(-c2ccc(C(=O)Nc3ccc(C(F)(F)F)nc3)cn2)nnn1C)c1cc(F)cnc1F", "unit spec": "nM", "EC50": 364}
{"compound": "C[C@@H](OC(=O)Nc1c(-c2ccc(C(=O)Nc3ccccc3)cn2)nnn1C)c1cccnc1Cl", "unit spec": "nM", "EC50": 256}
{"compound": "C[C@@H](OC(=O)Nc1c(-c2ccc(C(=O)Nc3cc(Cl)nc(C(F)(F)F)c3)cn2)nnn1C)c1cc(F)cnc1F", "unit spec": "nM", "EC50": 9}
{"compound": "C[C@@H](OC(=O)Nc1c(-c2ccc(C(=O)NC34CC(Cl)(C3)C4)cn2)nnn1C)c1cc(F)cnc1F", "unit spec": "nM", "EC50": 44.8}
{"compound": "C[C@@H](OC(=O)Nc1c(-c2ccc(C(=O)NC34CC(C(F)(F)F)(C3)C4)cn2)nnn1C)c1cccnc1Cl", "unit spec": "nM", "EC50": 26.2}
{"compound": "C[C@@H](OC(=O)Nc1c(-c2ccc(C(=O)NC3CC(c4ccccc4)C3)cn2)nnn1C)c1cc(F)cnc1F (stereo partly shown)", "unit spec": "nM", "EC50": 273}

Next up:
Assay human LPAR1 (Homo sapiens, UniProt Q92633), sample `C[C@@H](OC(=O)Nc1c(-c2ccc(C(=O)NC34CC(C(F)F)(C3)C4)cn2)nnn1C)c1cc(F)cnc1Cl` , EC50 read: 80.7

---

Biological target: human LPAR1 (Homo sapiens, UniProt Q92633)
Experiment: LPAR1 intracellular calcium mobilization assay (antagonist mode, FLIPR)
Type: cell-based
Settings: CHO-K1 EDG2 cells expressing human LPAR1; test compound 0.5 nM to 10 μM pre-incubated 60 minutes at 37° C., then LPA 18:2 at EC80 concentration (100 nM)
Procedure: In vitro LPAR1 activity was measured in an intracellular calcium mobilization assay. […] Agonist dose curves of LPA 18:2 (Avanti Polar Lipids cat #857138, 0.5 nM to 10 μM) were recorded to determine the LPA 18:2 EC80 for subsequent antagonist assays. […] Calcium mobilization was monitored for 5 min and 10 μL 6×LPA in HBSS/20 mM Hepes/0.1% bovine serum albumin (BSA) was added to the cells 5 seconds into the assay. […]
Returns: string. Value is criterion met if measured EC50 is below 90 nM, and criterion not met if it is greater than or equal to it.

A selection of reference data follows.
{"smiles notation": "C[C@@H](OC(=O)Nc1c(-c2ccc(C(=O)NC34CC(F)(C3)C4)c(F)n2)nnn1C)c1cccnc1Cl", "classification": "criterion not met"}
{"smiles notation": "C[C@@H](OC(=O)Nc1c(-c2ccc(C(=O)NC34CC(F)(C3)C4)cn2)nnn1C)c1cc(F)cnc1F", "classification": "criterion not met"}

// switching to the query compound
Asked: Is 90 nM strictly greater than the compound's reported EC50? compound: `C[C@@H](OC(=O)Nc1c(-c2ccc(C(=O)NC3CC(F)(F)C3)cn2)nnn1C)c1cccnc1Cl`
Given back: criterion not met
